# Tested on: Molm13
# experimental-details: cells
# Design: species or system Jurkat FADD-/-, HT-29, MV4-11 or Molm13; protection from induced necroptosis, cell death by PI staining and flow cytometry
# study-conditions: Homo sapiens, MOLM-13; BV6 + zVAD; inhibition of induced cell death
test-readout: pIC50
Here pIC50 is given on a logarithmic scale as minus log10 of the concentration in mol/L.

Exercise: Looking for the measured pIC50 of CN1C(=O)NC(Cc2c[nH]c3c(Cl)cccc23)C1=O (centres unmarked) , can you help?
Solution: 6.55

* * *

# Tested on: L929sAhFas
# experimental-details: cells
# Parameters: high-content necroptosis screen, percentage PI-positive nuclei as percent of DMSO plus stimulus control
# study-conditions: read-out: cell death TNF/Taki (POC)
# Experimental: To identify novel inhibitors or regulators of necroptosis, 500 small compounds from libraries targeting autophagy, kinases, phosphatases, proteases and redox balance were screened for their ability to block TNF-induced necroptosis in murine L929sAhFas cells. […] Necroptosis, measured as the percentage of PI-positive nuclei normalized to the plate-specific DMSO control, was determined for each compound (Supplementary Figure 1A). […]
Here, each record is paired with measured activity at 10 µM data.
The answer is to be given in %; state only the numeric part.

{"columns": ["structure-smiles-string", "activity at 10 µM (%)"],
 "data": [
  ["O=C1Nc2ccc(I)cc2/C1=C/c1cc(Br)c(O)c(Br)c1", 99.1],
  ["O=c1cc(N2CCOCC2)oc2c(-c3ccccc3)cccc12", 99.2],
  ["N#CC(C#N)=Cc1cc(O)c(O)c([N+](=O)[O-])c1", 99.7],
  ["N#C/C(=C\\c1ccc(O)c(O)c1)C(N)=O", 99.8]
]}

--- query ---
Exercise: Looking for the measured activity at 10 µM of `C/C(O)=C(\C#N)C(=O)Nc1cc(Br)ccc1Br` , can you help?
Solution: 100
